Target: T1, RAPGEF6, Q8TEU7
T1 sequence (Q8TEU7 525-625, limits assumed, looked up): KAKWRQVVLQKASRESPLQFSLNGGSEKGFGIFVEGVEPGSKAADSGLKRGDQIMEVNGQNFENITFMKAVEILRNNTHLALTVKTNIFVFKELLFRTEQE
Test: holdup assay
Parameters: key: below the threshold = too weak to quantify, mostly under pKd 3.1 to 4
Conditions: plain residues with an end cap or a label only (N-terminal biotin on a linker: ado-ado)

{"binder": "DRIQSCLSDA [SBF1, O95248]", "pKd": "below the threshold"}
{"binder": "NISYRRESAI [KCNJ4, P48050]", "pKd": "below the threshold"}
{"binder": "IDESKKEWLI [CNTNAP2, Q9UHC6]", "pKd": "below the threshold"}
{"binder": "ARSAAASNYV [CLDN4, O14493]", "pKd": "below the threshold"}
{"binder": "LAHVKHKEQI [AQP3, Q92482]", "pKd": "below the threshold"}
{"binder": "PTPDLPQTRV [KLHDC7A, Q5VTJ3]", "pKd": "below the threshold"}
{"binder": "EDLEDEWEVI [TECPR2, O15040]", "pKd": "below the threshold"}
{"binder": "QLSFNTDTLC [ABCA2, Q9BZC7]", "pKd": "below the threshold"}
